Test system: barnyardgrass
ASSAY_DETAILS: Test A pre-/postemergence herbicide test
Type: in vivo, Echinochloa crus-galli
CONDITIONS: Preemergence, 1000 g ai/ha; visual rating on 0 to 100 scale (0 no effect, 100 complete control), approx. 10 days
Plant response rating, Barnyardgrass overview
Quick one: just the number, no unit, thanks!

The following compounds have reported results that may help.
Query: Look up Plant response rating, Barnyardgrass for this compound: O=C1NCC(c2ccc(F)c(F)c2)C1C(=O)Nc1ccccc1 (racemic)
Reply: 90

Query: May I ask what Plant response rating, Barnyardgrass has been recorded for O=C1NCC(c2ccc(F)c(F)c2)C1C(=O)Nc1cccc(Cl)c1F (racemic) ?
Reply: 80

Query: Consider the compound Cn1ccc(NC(=O)C2C(=O)NCC2c2ccc(F)c(F)c2)n1 (stereo not shown) and give its measured Plant response rating, Barnyardgrass.
Reply: 50

Continuing:
Query: Item under review: O=C1NCC(c2ccc(F)c(F)c2)C1C(=O)N(O)c1ccccc1 (stereo not shown) . Reported Plant response rating, Barnyardgrass?
Reply: 50

----------
Tested on: soybean
ASSAY_DETAILS: Test C pre-/postemergence herbicide test
Format: in vivo, Glycine max
CONDITIONS: Preemergence, 250 g ai/ha
VALUE_KIND: Plant response rating (scale of 0 to 100), Soybean
Give your answer as a number; write no unit.

Would you please look over these solved cases?
Query: GET /values?readout=Plant response rating (scale of 0 to 100), Soybean&item= O=C1NCC(c2ccc(C(F)(F)F)c(F)c2)C1C(=O)Nc1ccccc1F (racemic)
Reply: 10

Query: May I ask what Plant response rating (scale of 0 to 100), Soybean has been recorded for O=C(Nc1ccccc1F)C1C(=S)NCC1c1cccc(C(F)(F)F)c1 (centres unmarked) ?
Reply: 0

Query: Sample O=C1NCC(c2cccc(C(F)(F)F)c2)C1C(=O)Nc1cccc(F)c1F (centres unmarked) — what was its Plant response rating (scale of 0 to 100), Soybean?
Reply: 0

Query: Tell me the measured Plant response rating (scale of 0 to 100), Soybean of O=C1NCC(c2cc(F)cc(F)c2)C1C(=O)Nc1ccc(F)cc1F (racemic) , please.
Reply: 10

Query: Would you kindly share the measured Plant response rating (scale of 0 to 100), Soybean for O=C1NCC(c2ccc(F)c(C(F)(F)F)c2)C1C(=O)Nc1ccccc1F (racemic) ?
Reply: 0

Next:
Query: Entry O=C1NCC(c2ccc(C(F)(F)F)nc2)C1C(=O)Nc1ccccc1F (racemic) : reported Plant response rating (scale of 0 to 100), Soybean = ?
Reply: 0

Query: Field request: Plant response rating (scale of 0 to 100), Soybean | item: O=C1NCC(c2cc(F)cc(F)c2)C1C(=O)Nc1cccc(F)c1F (racemic)
Reply: 10

Query: Given the entry O=C1NCC(c2cccc(C(F)(F)F)c2)C1C(=O)Nc1ccc(F)c(F)c1F (centres unmarked) , report its measured Plant response rating (scale of 0 to 100), Soybean.
Reply: 0

----------
Test system: galium
ASSAY_DETAILS: Test C pre-/postemergence herbicide test
Format: in vivo, Galium aparine
CONDITIONS: Preemergence, 31 g ai/ha; scale 0 to 100, 0 is no effect and 100 is complete control
VALUE_KIND: Galium plant response rating
Just the number.

Query: For O=C1NCC(c2ccc(C(F)(F)F)c(F)c2)C1C(=O)Nc1cccc(F)c1F (racemic) , what is its reported Galium plant response rating?
Reply: 90

New cases:
Query: Recorded Galium plant response rating for O=C1NCC(c2ccc(C(F)(F)F)nc2)C1C(=O)Nc1cccc(F)c1F (racemic) , please?
Reply: 70

Query: Quick check: Galium plant response rating of O=C1NCC(c2cccc(C(F)(F)F)c2)C1C(=O)Nc1ccccc1Cl (centres unmarked) [Compound 312] ?
Reply: 90

Query: What value of Galium plant response rating has been reported for the following compound? O=C1NCC(c2cccc(Br)c2)C1C(=O)Nc1ccccc1F (centres unmarked)
Reply: 0
